# assay: Example 1: multiple-dose randomized 3-way crossover PK study of two IV tramadol regimens vs 100 mg oral q6h
# condition-info: human, plasma, iv, 50 mg, C2, 50 mg IV regimen (h 0, 2, 4, then q4h to h 44); plasma, mean
Structures can show the parent of a compound that is named as a salt.
assay-readout: concentration at 2 h (µg/mL)

{"columns": ["compound", "assay-value"],
 "data": [
  ["COc1cccc([C@]2(O)CCCC[C@H]2CN(C)C)c1 (racemic) [Tramadol, hydrochloride]", 0.203]
]}

====

# assay: Example 1: multiple-dose randomized 3-way crossover PK study of two IV tramadol regimens vs 100 mg oral q6h
# condition-info: human, plasma, iv, 50 mg, plasma concentration, Mean, 50 mg IV Dose (h 0, 2, 4, then q4h to h 44); Time 8.00 hr
Counter-ions that a name gives are not always drawn.
assay-readout: concentration at 8 h (ng/mL)

{"columns": ["compound", "assay-value"],
 "data": [
  ["COc1cccc([C@]2(O)CCCC[C@H]2CN(C)C)c1 (racemic) [Tramadol, hydrochloride]", 346]
]}
